Source of measurements: patent US20230338555A1

Provide the reported Mean Fluorescence Intensity (MFI), uptake 37C-4C, at 7 nM of each item.
- target: T1, human sortilin stably expressed on HEK 293 cells (HEK-SORT1 cells) (human, UniProt Q99523 78-831)
- T1 sequence (looked up): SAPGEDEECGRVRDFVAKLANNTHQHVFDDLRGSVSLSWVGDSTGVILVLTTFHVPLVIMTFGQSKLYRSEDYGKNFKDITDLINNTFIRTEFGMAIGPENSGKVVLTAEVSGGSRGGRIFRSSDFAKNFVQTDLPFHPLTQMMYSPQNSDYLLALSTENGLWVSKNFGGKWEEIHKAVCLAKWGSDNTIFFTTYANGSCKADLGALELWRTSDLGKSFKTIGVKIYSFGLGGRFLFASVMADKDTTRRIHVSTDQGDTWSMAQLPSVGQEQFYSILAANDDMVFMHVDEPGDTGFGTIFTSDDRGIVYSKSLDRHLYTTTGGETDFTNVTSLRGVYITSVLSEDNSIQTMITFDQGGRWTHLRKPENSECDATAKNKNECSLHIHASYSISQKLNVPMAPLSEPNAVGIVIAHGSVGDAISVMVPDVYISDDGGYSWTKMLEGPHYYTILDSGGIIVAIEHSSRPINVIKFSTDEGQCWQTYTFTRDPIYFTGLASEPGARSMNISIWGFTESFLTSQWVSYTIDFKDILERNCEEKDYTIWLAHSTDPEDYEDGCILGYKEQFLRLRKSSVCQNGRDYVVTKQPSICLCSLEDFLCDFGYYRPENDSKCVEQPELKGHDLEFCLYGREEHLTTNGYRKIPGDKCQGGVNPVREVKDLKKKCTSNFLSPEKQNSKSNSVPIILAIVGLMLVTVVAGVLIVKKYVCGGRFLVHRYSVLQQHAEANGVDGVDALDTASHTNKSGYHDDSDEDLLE
- assay-explanation: cell-based or functional assay
Ends that are not written are not given here.
Express the result in MFI but write the number alone.

Query block: Recorded Mean Fluorescence Intensity (MFI), uptake 37C-4C, at 7 nM of KPAPSGPSPGLYENKPRRPYIL (not fully specified (residue 1); also: X side chain clicked via BCN (triazole) and 6-aminohexanol linker to 5' end of oligonucleotide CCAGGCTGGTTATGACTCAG (MOE, 3'-Cy3)) , please.
Result block: 53

Query block: Which measured Mean Fluorescence Intensity (MFI), uptake 37C-4C, at 7 nM value corresponds to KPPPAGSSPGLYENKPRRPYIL (not fully specified (residue 1); also: Cy3 label attached by BCN click to the azide) [Compound 17-AH-1492, Cy3-labeled extended neurotensin (eNT, …)] ?
Result block: 84

Query block: Given the binder KAGSIKPPPAGSSPGLYENKPRRPYIL (not fully specified (residue 1); also: X side chain clicked via BCN (triazole) and 6-aminohexanol linker to 5' end of oligonucleotide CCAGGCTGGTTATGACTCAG (MOE, 3'-Cy3)) , what is its reported Mean Fluorescence Intensity (MFI), uptake 37C-4C, at 7 nM?
Result block: 90
